This collection of values is drawn from ChEMBL document CHEMBL3856258.

TEST METHOD NOTES: Cytotoxicity against CHL cells assessed as growth rate at 5.41 ug/ml after 24 hrs in absence of S9 fraction by MTT assay relative to control
Format: toxicity, cell-based, Cricetulus griseus
SETUP CONDITIONS: chinese hamster, read-out: Activity

COMPOUND: COP(=O)(CCC(N)C(=O)O)Oc1cccc(CC(=O)O)c1 (stereo unspecified)
UNIT OF MEASURE: %
viability at 24 h, 5.41 ug/ml: 105

----------
TEST METHOD NOTES: Cytotoxicity against CHL cells assessed as growth rate at 528 ug/ml preincubated for 6 hrs followed by 18 hrs incubation in fresh medium in absence of S9 fraction by MTT assay relative to control
Format: toxicity, cell-based, Cricetulus griseus
SETUP CONDITIONS: chinese hamster, read-out: Activity
METRIC NAME: viability at 18 h, 528 ug/ml (%)

MOLECULE: COP(=O)(CCC(N)C(=O)O)Oc1cccc(CC(=O)O)c1 (stereo unspecified)
METRIC NAME: viability at 18 h, 528 ug/ml
UNIT OF MEASURE: %
TEST RESULT: 101

----------
TEST METHOD NOTES: Cytotoxicity against CHL cells assessed as growth rate at 1320 ug/ml preincubated for 6 hrs followed by 18 hrs incubation in fresh medium in absence of S9 fraction by MTT assay relative to control
Assay type: toxicity, cell-based, Cricetulus griseus
SETUP CONDITIONS: chinese hamster, read-out: Activity
METRIC NAME: viability at 18 h, 1320 ug/ml

COMPOUND: COP(=O)(CCC(N)C(=O)O)Oc1cccc(CC(=O)O)c1 (stereo unspecified)
TEST RESULT: 95.7%

----------
TEST METHOD NOTES: Cytotoxicity against CHL cells assessed as growth rate at 528 ug/ml preincubated for 6 hrs followed by 18 hrs incubation in fresh medium in presence of S9 fraction by MTT assay relative to control
Type: toxicity, cell-based, Cricetulus griseus
SETUP CONDITIONS: chinese hamster, read-out: Activity

COMPOUND: COP(=O)(CCC(N)C(=O)O)Oc1cccc(CC(=O)O)c1 (stereo unspecified)
viability at 18 h, 528 ug/ml [%]: 95.2

----------
TEST METHOD NOTES: Cytotoxicity against CHL cells assessed as growth rate at 3300 ug/ml after 24 hrs in absence of S9 fraction by MTT assay relative to control
Format: toxicity, cell-based, Cricetulus griseus
SETUP CONDITIONS: chinese hamster, read-out: Activity
METRIC NAME: viability at 24 h, 3300 ug/ml (%)

COMPOUND: COP(=O)(CCC(N)C(=O)O)Oc1cccc(CC(=O)O)c1 (stereo unspecified)
METRIC NAME: viability at 24 h, 3300 ug/ml
TEST RESULT: 79.5

----------
TEST METHOD NOTES: Cytotoxicity against CHL cells assessed as growth rate at 33.8 ug/ml preincubated for 6 hrs followed by 18 hrs incubation in fresh medium in presence of S9 fraction by MTT assay relative to control
Assay type: toxicity, cell-based, Cricetulus griseus
SETUP CONDITIONS: chinese hamster, read-out: Activity
METRIC NAME: viability at 18 h, 33.8 ug/ml (%)

COMPOUND: COP(=O)(CCC(N)C(=O)O)Oc1cccc(CC(=O)O)c1 (stereo unspecified)
METRIC NAME: viability at 18 h, 33.8 ug/ml
TEST RESULT: 101
